# pIC50 annotations
Tested on: Plasmodium falciparum
Assay: Antiplasmodial activity against chloroquine-sensitive Plasmodium falciparum D10 assessed as inhibition of parasite growth after 72 hrs by parasite lactate dehydrogenase assay
Type: functional, organism-based
Conditions: D10, 72 h
Scale: pIC50 equals -log10([C]), with [C] in mol/L.

Below are worked cases with known answers.
C/C=C/C=C/C=C/C[N+](C)(C)CCCCCCCCCCCCCC.[I-]
6.68
C/C=C/C=C/C=C/C[N+](C)(C)CCCCCCCCCCCCCCCCCC.[I-]
5.94
C/C=C/C=C/C=C/C[N+](C)(CCCCCCCCCCCCC)Cc1ccccc1.[I-] (configuration not stated)
6.06
C/C=C/C=C/C=C/C[N+](C)(C)CCCCCCCCCCCCC.[I-]
6.44
C/C=C/C=C/C=C/C[N+](C)(C)CCCCCCCCCCCCCCCC.[I-]
6.21
C/C=C/C=C/C=C/C[N+](C)(C)CCCCCCCCCCCC.[I-]
5.37
C/C=C/C=C/C=C/C[N+](C)(CCCCCCCCCCCC)Cc1ccccc1.[I-] (configuration not stated)
6.60
CCCCCCCCCCCC[N+](C)(C)CCCCCCCC.[Br-]
6.72
C/C=C/C=C/C=C/C[N+](C)(CCCCCCCCCCCCCCCCCC)Cc1ccccc1.[I-] (configuration not stated)
6.35

What measured pIC50 goes with C/C=C/C=C/C=C/C[N+](C)(CCCCCCCCCCCCCC)Cc1ccccc1.[I-] (configuration not stated) ?
6.66
